Test system: SK-MEL-28 melanoma
Test: NCI tumour cell line growth inhibition, 48 h; in the data active = GI50 below about 0.43 µM; inactive = the rest
Outcome field: choose from 1.0 = active, 0.0 = inactive

Given C=C1C(=O)O[C@H]2[C@H]1CC/C(Cn1cc(Cc3c[nH]c4ccccc34)nn1)=C\CC[C@@]1(C)O[C@@H]21 , state the outcome it received in this test.
0.0

Call for entry CC(=O)O[C@@]12CO[C@@H]1C[C@H](O)[C@@]1(C)C(=O)[C@H](O)C3=C(C)[C@@H](OC(=O)[C@H](O)[C@@H](NC(=O)OC(C)(C)C)c4ccccc4)C[C@@](O)([C@@H](OC(=O)c4ccccc4)C12)C3(C)C (some centres not stated) :
0.0

Would you mind telling me which call this test gave O=c1cc(-c2ccccc2)oc2ccc(OC/C(=N/O)c3ccc(F)cc3)cc12 ?
0.0

Tell me the assay call for c1cc(CN2CCCNCCNCCCNCC2)ccc1CN1CCCNCCNCCCNCC1 please.
0.0

Fill in: this test's call for C[C@]12CC[C@@H]3c4ccc(O)cc4CC[C@H]3[C@@H]1CC[C@@H]2NS(=O)(=O)c1cccc(Cl)c1 is ___
0.0

Just curious, what result did CCC[CH2][Sn]([CH2]CCC)([CH2]CCC)[O]C(=O)C(OC(C)=O)c1ccccc1 (configuration not stated) get here?
1.0

Any idea what this test logged for O=C(O)/C=C/c1ccc[c]([Sb](=[O])([OH])[OH])c1 ?
0.0

What call does the record list for COc1ccc(-c2nsc3c2NC(=O)CC3c2ccc3c(c2)OCCO3)cc1 (configuration not stated) ?
0.0

Which result was noted for this compound in the test: Clc1ccccc1[C@@H]1C[C@@H]2Cc3cc(Br)c4ccccc4c3N1O2
0.0

What classification did Fc1ccc2[nH]cc(-c3nc(-c4c[nH]c5ccncc45)cs3)c2c1 end up with in this test?
0.0

Dear colleague, could you share the recorded outcome for COc1cccc(Sc2ccc([N+](=O)[O-])c3no[n+]([O-])c23)c1 when you have a moment?
0.0

Please indicate how the test categorized COc1cc(-c2nn(-c3cccc(NC(=O)NCCNS(=O)(=O)c4ccc(Cl)cc4)c3)cc2-c2ccncc2)ccc1Cl .
0.0

# outcome recorded in this test, key = COC1CC(C)C(OC)c2cc(O)cc(c2O)NC(=O)/C(C)=C/C=C\C(C)C(OC(N)=O)/C(C)=C\C(C)C1OC (configuration not stated)
1.0

Hello, I am checking results. What call was entered for CN(C)C[C@H]1CCn2c(c(C3=C(c4cn(C)c5ccccc45)C(=O)NC3=O)c3ccccc32)C1 ?
0.0

What was the test verdict on O=C1NCN(c2ccccc2)C12CCN(CCCC(c1ccc(F)cc1)c1ccc(F)cc1)CC2 ?
0.0

I would be grateful if you could indicate the recorded call for O=C1Nc2ccccc2/C1=C\c1cccc(/C=C2/C(=O)Nc3ccccc32)n1 .
1.0

I'd appreciate the recorded outcome for COc1ccc(OC)c(NC(=O)c2cccc(NC3=C(Cl)C(=O)N(Cc4ccccc4)C3=O)c2)c1 from this test.
0.0

====

System: SNB-75 CNS
Test: NCI tumour cell line growth inhibition, 48 h
Kindly supply the reported TGI values for the records listed here.

For the compound NC(=S)Nc1ccc2c(c1)oc1ccccc12 , what TGI is on record?
> 100 µM

I am curious: what TGI value has been reported for CCOP(=O)(OCC)/C(C#N)=C\c1ccsc1 ?
> 100 µM

Bench note: what TGI did CCCN(CCC)CCc1cc(C(C)=O)n(S(=O)(=O)c2ccc(C)cc2)c1 show?
> 100 µM
